# System: Mycobacterium tuberculosis
# measurementProtocol: Antimycobacterial activity against isoniazid, rifampicin, ethambutol, streptomycin and levofloxacin resistant Mycobacterium tuberculosis clinical isolate 1576 incubated for 7 days by resazurin dye based colorimetric method analysis
# Type: functional
# details: Mycobacterium tuberculosis, 1576, 168 h; time 7 day
attributeMeasured: MIC (µM)

1. CCCCCCCCCCCCCCCCCC(N)COCc1ccccc1 (stereo not given) : 64
2. CCCCCCCCCCCCCCCCCC(N)CO (stereo not given) : 8
3. CCCCc1ccc(CCCCCC(N)CO)cc1 (stereo not given) : 64
4. CCCCc1ccc(CCCCCC(CO)NC(=O)OC(C)(C)C)cc1 (stereo not given) : 16
5. CCCCCCCCCCCCCCCC(CO)NCCCCCCCCCC (stereo not given) : 64
6. CCCCCCCCCCCCCCCC(CN)NC(=O)OC(C)(C)C (stereo not given) : 17.6
7. CCCCCCCCCCCCCCCCCC(CN)NC(=O)OC(C)(C)C (stereo not given) : 16
8. CCCCCCCCCCCC(CO)NCCCC (stereo not given) : 32
9. CCCCCCCCCCCCCCCCCCCC(N)COCc1ccccc1 (stereo not given) : 32

----------
Listed compounds paired with reported MIC
# Tested on: Mycobacterium tuberculosis
# measurementProtocol: Antimycobacterial activity against isoniazid, rifampicin, ethambutol, streptomycin and levofloxacin resistant Mycobacterium tuberculosis clinical isolate 1576 incubated for 7 days by resazurin dye based colorimetric method analysis
# Type: functional
# details: Mycobacterium tuberculosis, 1576, 168 h; time 7 day
attributeMeasured: MIC (µM)

1) CCCCCCCCCCCC(CNCC)NC(=O)OC(C)(C)C (stereo unspecified) : 64
2) CCCCc1ccc(CCCCCCCC(N)CO)cc1 (stereo unspecified) : 2
3) CCCCCCCCCCCC(CO)N(CC)CC (stereo unspecified) : 32
4) CCCCCCCCCCCCCCCCCCCC(CN)NC(=O)OC(C)(C)C (stereo unspecified) : 64
5) CCCCCCCCCCCCCCCC(CNCCCCCC)NC(=O)OC(C)(C)C (stereo unspecified) : 8
6) CCCCCCCCCCCCCCCC(CNCC)NC(=O)OC(C)(C)C (stereo unspecified) : 16

----------
# System: Mycobacterium tuberculosis
# measurementProtocol: Antimycobacterial activity against isoniazid, rifampicin, ethambutol, streptomycin and levofloxacin resistant Mycobacterium tuberculosis clinical isolate 1576 incubated for 7 days by resazurin dye based colorimetric method analysis
# Type: functional
# details: Mycobacterium tuberculosis, 1576, 168 h; time 7 day
attributeMeasured: MIC (µM)

1. CCCCCCCCCCCCCCCC(CNCCCC)NC(=O)OC(C)(C)C (stereo not drawn) : 8
2. CCCCc1ccc(CCCCCCCC(CO)NC(=O)OC(C)(C)C)cc1 (stereo not drawn) : 16
3. CCCCCCCCCCCCCCCC(N)CN (stereo not drawn) : 390
4. CCCCCCCCCCCCCCCCCCCC(COCc1ccccc1)NCC (stereo not drawn) : 16
5. CCCCCCCCCCCCCCCCCC(COCc1ccccc1)NCCCCCC (stereo not drawn) : 64
6. CCCCCCCCCCCCCCCCCC(CO)NCCCC (stereo not drawn) : 32
7. CCCCCCCCCCCC(N)CO (stereo not drawn) : 32
8. CCCCCCCCCCCCCCCC(N)COCc1cc(OC)c(OC)c(OC)c1 (stereo not drawn) : 8
9. CCCCCCCCCCCCCCCC(CO)N(CC)CC (stereo not drawn) : 32
10. CCCCCCCCCCCCCCCC(CO)N(CCCC)CCCC (stereo not drawn) : 8
11. CCCCc1ccc(CCCCCCCCCC(N)CO)cc1 (stereo not drawn) : 2
12. CCCCc1ccc(CCCCCCCCCC(CO)NC(=O)OC(C)(C)C)cc1 (stereo not drawn) : 16

----------
Listed compounds paired with reported MIC
# Test system: Mycobacterium tuberculosis
# measurementProtocol: Antimycobacterial activity against isoniazid, rifampicin, ethambutol, streptomycin and levofloxacin resistant Mycobacterium tuberculosis clinical isolate 1576 incubated for 7 days by resazurin dye based colorimetric method analysis
# Format: functional
# details: Mycobacterium tuberculosis, 1576, 168 h; time 7 day
attributeMeasured: MIC (µM)

1) CCCCCCCCCCCCCCCC(CO)NCCCCCC (stereo not drawn) : 64
2) CCCCCCCCCCCCCCCC(CN=[N+]=[N-])NC(=O)OC(C)(C)C (stereo not drawn) : 16
3) CCCCCCCCCCCCCCCC(COCc1ccccc1)NCC (stereo not drawn) : 16
4) CCCCCCCCCCCCCCCCCC(CO)NCC (stereo not drawn) : 16
5) CCCCCCCCCCCCCCCC(COCc1ccccc1)NCCCCCC (stereo not drawn) : 64
6) CCCCCCCCCCCCCCCC(N)CNCC (stereo not drawn) : 16
7) CCCCCCCCCCCC(CO)NCC (stereo not drawn) : 64
8) CCCCCCCCCCCCCCCC(N)COCc1ccccc1 (stereo not drawn) : 4.5
9) CCCCCCCCCCCCCCCC(CO)NCC (stereo not drawn) : 32
10) CCCCCCCCCCCCCCCC(CNCC(=O)OCC)NC(=O)OC(C)(C)C (stereo not drawn) : 32
11) CCCCCCCCCCCCCCCC(CO)NCCCC (stereo not drawn) : 64
12) CCCCCCCCCCCCCCCC(N)CO (stereo not drawn) : 3.03
13) CCCCCCCCCCCCCCCCCCCC(CNCC)NC(=O)OC(C)(C)C (stereo not drawn) : 4
